assay: yeast display, Sf9 membrane polyspecificity reagent, FACS + sequencing; frameworks hold sequencing errors

residueSequence | polyreactivity (PSR sort gate)
QVQLVESGGGLVQAGGSLRLSCAASGIIFGTNAMGWYRQAPGKERELVAYITSGGSTYADSVKGRFKISRDNAKNTVYLQMNSLKPEDTAVYSCAAYVFWAFYEYDYWGQGTQVTVSS | low polyreactivity
QVQLEESGGGLVQAGGSLRLSCAASGRIFSYNAMGWSIPAPGKERELVAAISYSGGRTYYADSVKGRFTISRDNAKNTVYLQMNSLKPEDTAVYYCAAKRKIRGYGPYEYWGQGTQVTVSS | high polyreactivity
QVQLVESGGGLVQAGGSLRLICAASGSTFYSYAMGWYRQVPGKERELVAAISRRGGSTYYADSVKGRFTISRDNAKNTVYLQMNSLKPEDTAVYYCAADWSRSSAEVDYWGQGTQVTVSS | high polyreactivity
QVQLVESGGGLVQAGGSLRLSCAASGSTFEDYTLGGYRQATGKERELVAAINWDGSRTYYADSVKGRFTISRDNAKNTVYLQMNSLKPEDTAVYDCAAHSAYHRRRMYYWGQGTQVTVSS | high polyreactivity
HFQLVESGGGLVQAGGSLRLSCAASVFIILINVMGWSRQAPGKERELVAVITGGGTTNYADSVKGRFTISRDNANNTVYLQMNSLKPVDTAGYYCAVDAGAGDNDYWGQGTQVTVSS | low polyreactivity
QVQLVESGGGLVQAGGSLRLSCAASGGTFGPYAMGWYSQAPGKERELVATIRSSGGRTYYADSVTGRFTISRDNAKNTVYFQMNSLKPEDTAVYYCAADNLRQFGEYDYWGQGTQVTVSS | low polyreactivity
QVQLVESGGGLVQAGGSLRLSCPASGSTFQYNPLGWYRQAPGKERELVAAISRRGGSTYYADSVKGRFTISRDNAKNTVYLQMNSLKPEDTAVYYCAVSAYKGYDYWGQGTQVTVSS | high polyreactivity
QVQLVESGGGLVQAGGSLRLSCAASGSTFINYAMGWYRQAPGKERELVAAISSSGGRTYYADSVKGSFTISRDNAKNTVYFLMNSLKPEDTAVYYCAASGRKNGMNYWGQGTLVTVSS | high polyreactivity
QVQLVESGGGLVQAGGSLRLSCAASGFIFDGYAMGWYRQAPGKERELVAAIDSGGDRTYYADSVKGRFTISRDNAMNTVYLQMNSLKPEDTAVYYCAADSSDPTGYDYWGQGTQVTVSS | low polyreactivity
QVELQVSGGGLVRAGGSLRLSCAASGNIFDADIMGWYRQAPGKERELVASITGGGSTSYAESAKGRFTISRDNAKNAVYLQMNRLKPEDTAVYYCAAAAYYADFDYWGQGTQVTVSS | low polyreactivity
QVQLVESGGGLVQAGGSLRLSCAASGGTFYVNAMGLYRQAPGKERELVAGIRESGASTYYADSVKGRFTISRDNAKNTVYFQMNSLQPEDTAVYYCAVDGPYPAASQSEVGYDYWGQGTQVTVSS | low polyreactivity
